Origin of values: the supplement of paper PMC7858590

system: human monocyte-derived macrophages (polarized); test: cell shape (eccentricity) Z-score vs DMSO control; higher = more elongated, M2-like morphology; conditions: 5 µM; 24 h; macrophage state: M1-polarized (IFNg + TNFa), cytokines present during treatment
Returns 1 if the recorded cell shape (Z-score) is greater than or equal to -3, and -1 otherwise.

Has CCCN(CCC)C1CCc2cccc(O)c2C1 (centres undefined) a recorded cell shape (Z-score) greater than or equal to -3?
-1

Can CCN1C[C@]2(COC)CC[C@H](OC)[C@]34C1[C@H]([C@H](OC)[C@H]23)[C@@]1(OC(C)=O)C[C@H](OC)[C@]2(O)C[C@@H]4[C@@H]1[C@H]2OC(=O)c1ccc(OC)cc1 be said to have cell shape (Z-score) at or above -3?
-1

Entry c1cc2c(c(N3CCNCC3)c1)OCCO2 : is its cell shape (Z-score) no less than -3?
-1

###

tested on: human monocyte-derived macrophages (polarized); assay: cell shape (eccentricity) Z-score vs DMSO control; higher = more elongated, M2-like morphology; conditions: 5 µM; 24 h; macrophage state: M2-polarized (IL-4 + IL-13), cytokines present during treatment
We begin with a simple list: items and their reported cell shape (Z-score).
Lab note: jot the number down without any unit.

The examples below pair each entry with its known result.
[[record]]
compound = "CC(=O)O[C@@H]1CC2C(C)(C)C(=O)C=C[C@]2(C)C2CC[C@]3(C)C(=CC(=O)O[C@H]3c3ccoc3)[C@@]21C (some centres not stated)"
meas_value = -9.39

[[record]]
compound = "C(=C\\c1ccccc1)/CN1CCN(CCOC(c2ccccc2)c2ccccc2)CC1"
meas_value = 3.27

[[record]]
compound = "C[C@H]1O[C@@H](O[C@H]2CC[C@]3(CO)C4CC[C@]5(C)[C@@H](C6=CC(=O)OC6)CC[C@]5(O)[C@@H]4CC[C@H]3C2)[C@H](O)[C@H](O)[C@@H]1O[C@@H]1O[C@H](CO)[C@@H](O)[C@H](O)[C@H]1O (some centres not stated)"
meas_value = -17.5

[[record]]
compound = "CC(=O)O[C@H]1C(=O)[C@@]2(C)[C@H]([C@H](OC(=O)c3ccccc3)[C@]3(O)C[C@H](O)C(C)=C1C3(C)C)[C@]1(OC(C)=O)CO[C@@H]1C[C@@H]2O"
meas_value = -9.61


Give me measured cell shape (Z-score), please, for this compound: Fc1ccc(C(OCCN2CCN(C/C=C/c3ccccc3)CC2)c2ccc(F)cc2)cc1
-8.38

Fill in reported cell shape (Z-score) for this entry: CN1C(=O)COc2c(C(=O)NC3CN4CCC3CC4)cc(Cl)cc21 (configuration not stated)
-3.99

Fill in cell shape (Z-score) for record CCN1C[C@]2(C)CC[C@H](O)[C@@]34C2[C@H](OC)C([C@@H]13)[C@@]1(O)C[C@H](OC)[C@H]2C[C@@H]4[C@@H]1[C@H]2O
-1.79

###

system: human monocyte-derived macrophages (polarized); test: cell shape (eccentricity) Z-score vs DMSO control; higher = more elongated, M2-like morphology; details: 5 µM; 24 h; macrophage state: M1-polarized (IFNg + TNFa), cytokines present during treatment
MEASUREMENT_KIND: cell shape (Z-score)
Hey, just send me the number, nothing else.

[[record]]
molecule = "CCNC(=O)C[C@@H]1N=C(c2ccc(Cl)cc2)c2cc(OC)ccc2-n2c(C)nnc21"
meas_value = -4.48

[[record]]
molecule = "CCn1cc(C(=O)O)c(=O)c2cc3c(cc21)OCO3"
meas_value = 3.52

[[record]]
molecule = "COc1cc([C@@H]2c3cc4c(c(O)c3C[C@H]3COC(=O)[C@@H]32)OCO4)cc(OC)c1OC"
meas_value = 3.15


Tell me cell shape (Z-score) reported for C[C@]12CCC(=O)C=C1CC[C@@H]1C2CC[C@]2(C)C(=O)CCC12 (some centres undefined)
-0.101

Give cell shape (Z-score) for the following molecule: Cc1sc2c(c1C)C(c1ccc(Cl)cc1)=N[C@@H](CC(=O)OC(C)(C)C)c1nnc(C)n1-2
-7.72

Please report the measured cell shape (Z-score) for C=C(C)[C@@H]1[C@H]2OC(=O)[C@@H]1[C@]1(O)C[C@H]3O[C@]34C(=O)O[C@H]2[C@]14C
0.251

###

system: human monocyte-derived macrophages (polarized); assay: cell shape (eccentricity) Z-score vs DMSO control; higher = more elongated, M2-like morphology; settings: 5 µM; 24 h; macrophage state: M2-polarized (IL-4 + IL-13), cytokines present during treatment
MEASUREMENT_KIND: cell shape (Z-score)
Answer using only a numeral; do not append any unit.

Solved cases below.
[[record]]
compound = "COc1ccc2c(c1)[nH]c1c(C)nccc12"
measurement_kind = "cell shape (Z-score)"
meas_value = -11

[[record]]
compound = "O=c1[nH]c2ccccc2n1C1CCN(CCCC(c2ccc(F)cc2)c2ccc(F)cc2)CC1"
measurement_kind = "cell shape (Z-score)"
meas_value = -5.52

[[record]]
compound = "c1ccc2c(c1)[I+]c1ccccc1-2"
measurement_kind = "cell shape (Z-score)"
meas_value = -19

[[record]]
compound = "CCCC[C@@H](C)[C@@H](OC(=O)C[C@@H](CC(=O)O)C(=O)O)[C@H](C[C@@H](C)C[C@H](O)CCCC[C@@H](O)C[C@H](O)[C@H](C)N)OC(=O)C[C@@H](CC(=O)O)C(=O)O"
measurement_kind = "cell shape (Z-score)"
meas_value = 2.12


// next entry
Provide cell shape (Z-score), tested on human monocyte-derived macrophages (polarized), for COc1cc(Br)c(OC)c2c1C(CN)C2 (stereo not given) .
7.42

###

test system: human monocyte-derived macrophages (polarized); experiment: cell shape (eccentricity) Z-score vs DMSO control; higher = more elongated, M2-like morphology; settings: 5 µM; 24 h; macrophage state: M1-polarized (IFNg + TNFa), cytokines present during treatment
MEASUREMENT_KIND: cell shape (Z-score)
Please give only the number in your answer, with no unit.

Worked cases, cell shape (Z-score) given:
[[record]]
molecule = "COc1cc([C@@H]2c3cc4c(cc3[C@H](OC(C)=O)[C@H]3COC(=O)[C@H]23)OCO4)cc(OC)c1OC"
meas_value = 7.24

[[record]]
molecule = "CN1[C@@H]2CC[C@H]1C[C@@H](OC(c1ccccc1)c1ccccc1N)C2 (stereo partly specified)"
meas_value = -3.5

[[record]]
molecule = "COc1cc([C@@H]2c3cc4c(cc3[C@@H](O)[C@H]3COC(=O)[C@H]23)OCO4)cc(OC)c1O"
meas_value = 3.2

[[record]]
molecule = "CN(C)C(=S)SSC(=S)N(C)C"
meas_value = -4.6

[[record]]
molecule = "Clc1ccc(C(OCCN2CCCCC2)c2ccccc2)cc1 (stereo unspecified)"
meas_value = -5.91


# evaluate next
Provide only the value of recorded cell shape (Z-score) for CCC(=O)CCCCC[C@@H]1NC(=O)[C@H]2CCCCN2C(=O)[C@H]([C@@H](C)CC)NC(=O)[C@H](Cc2cn(OC)c3ccccc23)NC1=O
4.88

###

tested on: human monocyte-derived macrophages (polarized); assay: cell shape (eccentricity) Z-score vs DMSO control; higher = more elongated, M2-like morphology; settings: 5 µM; 24 h; macrophage state: M1-polarized (IFNg + TNFa), cytokines present during treatment
MEASUREMENT_KIND: cell shape (Z-score)
Output spec: single numeric token, no unit.

Previously resolved entries follow.
[[record]]
molecule = "CC(C)=CC1C(C(=O)OCc2coc(Cc3ccccc3)c2)C1(C)C (stereo not drawn)"
meas_value = 8.88

[[record]]
molecule = "O=C1/C(=C/c2ccccc2)C[C@@]2(O)[C@H]3Cc4ccc(O)c5c4[C@@]2(CCN3CC2CC2)[C@H]1O5"
meas_value = -6.15

[[record]]
molecule = "O=C1NC(=O)c2c1c1c3ccccc3[nH]c1c1[nH]c3ccccc3c21"
meas_value = 7.76

[[record]]
molecule = "COc1cc2ccc(=O)oc2c2ccoc12"
meas_value = 8.59

[[record]]
molecule = "CCOC(=O)c1ncn2c1C1CCCN1C(=O)c1cc(OC)ccc1-2 (stereo not drawn)"
meas_value = 1.88


Tell me cell shape (Z-score) reported for CNc1ccc2oc(C[C@H]3O[C@@]4(CC[C@H]3C)O[C@H]([C@H](C)C(=O)c3ccc[nH]3)[C@H](C)C[C@H]4C)nc2c1C(=O)O
-11.1

Find the measured cell shape (Z-score) of COc1ccc2c3c([nH]c2c1)[C@H](CC(C)C)N1C(=O)[C@H](CCC(=O)OC(C)(C)C)NC(=O)[C@@H]1C3 and report it.
6.14

Supply reported cell shape (Z-score) belonging to this molecule: O=C(O)c1nn(Cc2ccc(Cl)cc2Cl)c2ccccc12
4.43
